target_entity: UniProt:Q9H3N8
Sequence (Q9H3N8 whole entry): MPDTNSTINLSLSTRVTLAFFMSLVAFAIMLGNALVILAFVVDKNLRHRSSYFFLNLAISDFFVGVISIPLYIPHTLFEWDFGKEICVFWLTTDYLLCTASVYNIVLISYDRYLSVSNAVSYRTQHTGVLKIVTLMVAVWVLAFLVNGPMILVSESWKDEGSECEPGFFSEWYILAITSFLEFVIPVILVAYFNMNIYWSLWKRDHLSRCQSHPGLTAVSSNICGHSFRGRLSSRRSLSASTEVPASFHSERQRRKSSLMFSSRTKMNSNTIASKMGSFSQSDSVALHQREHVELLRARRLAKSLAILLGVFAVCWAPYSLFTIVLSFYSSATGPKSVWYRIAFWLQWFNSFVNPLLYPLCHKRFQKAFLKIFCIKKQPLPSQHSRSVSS
pKi: −log10 of the molar value.
Assign Y whenever pKi does not fall below 8; assign N whenever it does.

Below are worked cases with known answers.
compound=CN[C@@H]1CCN(c2cc(N)nc(NCc3ccccc3)n2)C1 target_entity=UniProt:Q9H3N8 class_label=N
compound=CN1CCN(c2cc(NC3CCCC3)nc(N)n2)CC1 target_entity=UniProt:Q9H3N8 class_label=Y
compound=CN[C@@H]1CCN(c2cc(N)nc(NCCO)n2)C1 target_entity=UniProt:Q9H3N8 class_label=N
compound=CN[C@@H]1CCN(c2cc(N3CCCC3)nc(N)n2)C1 target_entity=UniProt:Q9H3N8 class_label=N
compound=CC(C)CNc1cc(N2CCN(C)CC2)nc(N)n1 target_entity=UniProt:Q9H3N8 class_label=Y
compound=CC(C)N(C)c1cc(N2CCN(C)CC2)nc(N)n1 target_entity=UniProt:Q9H3N8 class_label=N

Ask: Quick check: does CN[C@@H]1CCN(c2cc(N)nc(NC3CCCC3)c2)C1 have pKi greater than or equal to 8?
Result: Y

Ask: Quick check: does Nc1nc(N2CCCC2)cc(N2CC[C@@H](N)C2)n1 have pKi greater than or equal to 8?
Result: N

Ask: Quick check: does CN[C@@H]1CCN(c2cc(N)nc(NCC(C)(C)C)c2)C1 have pKi greater than or equal to 8?
Result: Y

Ask: Quick check: does CN[C@@H]1CCN(c2cc(NCCO)nc(N)n2)C1 have pKi greater than or equal to 8?
Result: N

Ask: Quick check: does CN[C@@H]1CCN(c2cc(N)nc(N3CCCC3)c2)C1 have pKi greater than or equal to 8?
Result: N

Ask: Quick check: does CN1CCN(c2cc(N)nc(NC3CCCC3)c2)CC1 have pKi greater than or equal to 8?
Result: Y

Ask: Quick check: does CC(C)N(C)c1nc(N)cc(N2CCN(C)CC2)n1 have pKi greater than or equal to 8?
Result: N

Ask: Quick check: does Nc1nc(N2CCCC2)cc(N2CC3CCCNC3C2)n1 (racemic) have pKi greater than or equal to 8?
Result: N

Ask: Quick check: does CN[C@H]1CCN(c2cc(N3CCCC3)nc(N)n2)C1 have pKi greater than or equal to 8?
Result: N

Ask: Quick check: does CC(C)N(C)c1cc(N2CCN(C)CC2)cc(N)n1 have pKi greater than or equal to 8?
Result: N

Ask: Quick check: does CN[C@@H]1CCN(c2cc(N)nc(NC(C)C)c2)C1 have pKi greater than or equal to 8?
Result: Y

Ask: Quick check: does CC(C)CNc1cc(N2CCN(C)CC2)cc(N)n1 have pKi greater than or equal to 8?
Result: Y

Ask: Quick check: does CC(C)Nc1cc(N2CCN(C)CC2)cc(N)n1 have pKi greater than or equal to 8?
Result: N

Ask: Quick check: does CC(C)Nc1cc(N2CCN(C)CC2)nc(N)n1 have pKi greater than or equal to 8?
Result: Y
